Where do the numbers come from? From ChEMBL document CHEMBL2010641.

# assay_procedure: Half life in rat liver microsomes at 2 uM
# Format: ADME, Microsome
property: log10 half-life at 2 µM (log10 of the value in min)
Response schema: value (number) is log10 of half-life at 2 µM in units of min.

Could you tell me which log10 half-life at 2 µM is on file for CCC1=C(C(=O)OCC2CCCCC2)[C@H](c2ccc(O)c(Cl)c2)NC(=O)N1 ?
0.85

Could you tell me which log10 half-life at 2 µM is on file for CCC1=C(C(=O)CC2CCCCC2)[C@H](c2ccc(O)c(Cl)c2)NC(=O)N1 ?
0.85

Could you tell me which log10 half-life at 2 µM is on file for CCC1=C(c2nc(C3CCCCC3)co2)[C@H](c2ccc(O)c(Cl)c2)NC(=O)N1 ?
1.73

Could you tell me which log10 half-life at 2 µM is on file for CCC1=C(C(=O)CCC2CCCCC2)[C@H](c2ccc(O)c(Cl)c2)NC(=O)N1 ?
0.70

Could you tell me which log10 half-life at 2 µM is on file for CCC1=C(c2nc(C3CCCCC3)cs2)[C@H](c2ccc(O)c(Cl)c2)NC(=O)N1 ?
1.48

Could you tell me which log10 half-life at 2 µM is on file for CCC1=C(C(=O)CC2CCC(CC)CC2)[C@H](c2ccc(O)c(Cl)c2)NC(=O)N1 (some centres not stated) ?
1.20

Could you tell me which log10 half-life at 2 µM is on file for CCC1=C(C(=O)OCC2CCCCC2)[C@H](c2cccc(O)c2)NC(=O)N1 ?
0.18
